- Target system: recombinant JAK1 enzyme (Homo sapiens, UniProt P23458)
- Construct: 8 nM of recombinant JAK1 enzyme (Insect expressed: V866-K1155)
- Sequence (P23458 865-1154 limits assumed): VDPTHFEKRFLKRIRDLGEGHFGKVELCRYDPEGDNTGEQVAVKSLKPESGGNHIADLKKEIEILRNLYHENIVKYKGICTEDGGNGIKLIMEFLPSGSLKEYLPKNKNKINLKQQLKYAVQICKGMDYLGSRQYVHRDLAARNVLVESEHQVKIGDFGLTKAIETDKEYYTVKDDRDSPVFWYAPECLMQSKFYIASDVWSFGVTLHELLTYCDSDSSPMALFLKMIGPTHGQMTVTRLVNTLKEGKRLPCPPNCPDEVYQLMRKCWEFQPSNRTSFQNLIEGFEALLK
- Test method notes: JAK1 Kinase Assay (luciferase-luciferin-coupled chemiluminescence, ATP consumption)
- Test parameters: 8 nM JAK1 (V866-K1155), 30 μM IRS-1 peptide (Y608), 2 μM ATP, 2 hours ambient temperature, KinaseGlo; read-out: JAK1 IRS-1tide Chemilum (IC50)
Readout type: IC50

Below, each entry is followed by its recorded IC50 result.
[[record]]
given_smiles = "O=C1OCc2cc(-c3nnc(Nc4cc(C(F)(F)F)cc(C(F)(F)F)c4)c4ccccc34)ccc21"
target_system = "recombinant JAK1 enzyme (Homo sapiens, UniProt P23458)"
result = "2000 to 30000 nM"

[[record]]
given_smiles = "FC(F)(F)c1cc(Nc2nnc(-c3ccc4cn[nH]c4c3)c3ccccc23)cc(C(F)(F)F)c1"
target_system = "recombinant JAK1 enzyme (Homo sapiens, UniProt P23458)"
result = "≤ 150 nM"

[[record]]
given_smiles = "COC(=O)c1ccc(-c2nnc(Nc3cc(C(=O)OC)cc(C(F)(F)F)c3)c3ccccc23)cc1"
target_system = "recombinant JAK1 enzyme (Homo sapiens, UniProt P23458)"
result = "2000 to 30000 nM"

[[record]]
given_smiles = "CCc1cccc(Nc2nnc(-c3ccc(C(=O)OC)cc3)c3ccccc23)c1"
target_system = "recombinant JAK1 enzyme (Homo sapiens, UniProt P23458)"
result = "150 to 500 nM"

[[record]]
given_smiles = "COC(=O)c1ccc(-c2nnc(Nc3cc(CN(C)C)cc(C(F)(F)F)c3)c3ccccc23)cc1"
target_system = "recombinant JAK1 enzyme (Homo sapiens, UniProt P23458)"
result = "500 to 1000 nM"


Summary for this molecule, CC(=O)c1cccc(-c2nnc(Nc3cc(C(F)(F)F)cc(C(F)(F)F)c3)c3ccccc23)c1 : IC50 is 2000 to 30000 nM

Briefly, IC50 measured for O=c1[nH]ccn1-c1ccc(-c2nnc(Nc3cc(C(F)(F)F)cc(C(F)(F)F)c3)c3ccccc23)cc1 : ≤ 150 nM

* * *

- Target system: recombinant JAK1 enzyme (Homo sapiens)
- Construct: 8 nM of recombinant JAK1 enzyme (Insect expressed: V866-K1155)
- Test method notes: JAK1 Kinase Assay (luciferase-luciferin-coupled chemiluminescence, ATP consumption)
- Test parameters: 8 nM JAK1 (V866-K1155), 30 μM IRS-1 peptide (Y608), 2 μM ATP, 2 hours ambient temperature, KinaseGlo; read-out: JAK1 IRS-1tide Chemilum (IC50)
Readout type: IC50

Some molecules with known IC50 results, for comparison:
[[record]]
molecule = "COC(=O)c1ccc(-c2nnc(Nc3cccc(C#N)c3)c3ccccc23)cc1 [Compound 54]"
readout_type = "IC50"
result = "2000 to 30000 nM"

[[record]]
molecule = "CC(=O)Nc1ccc(-c2nnc(Nc3cc(C(F)(F)F)cc(C(F)(F)F)c3)c3ccccc23)cc1 [Compound 28]"
readout_type = "IC50"
result = "500 to 1000 nM"


# molecule COC(=O)c1ccc(-c2nnc(Nc3cc(C(F)(F)F)cc(C(F)(F)F)c3)c3ccccc23)c(C)c1 [Compound 64] ; its IC50 = 500 to 1000 nM

Query O=C(NCCN1CCOCC1)c1ccc(-c2nnc(Nc3cc(C(F)(F)F)cc(C(F)(F)F)c3)c3ccccc23)cc1 [Compound 49] yields IC50 of 500 to 1000 nM

Nc1n[nH]c2cc(-c3nnc(Nc4cc(C(F)(F)F)cc(C(F)(F)F)c4)c4ccccc34)ccc12 [Compound 38] has a reported IC50 of ≤ 150 nM

These data points were gathered from patent US20130165440A1.
